Target: PAR1 (Homo sapiens, UniProt P25116)
Sequence (P25116 22-425): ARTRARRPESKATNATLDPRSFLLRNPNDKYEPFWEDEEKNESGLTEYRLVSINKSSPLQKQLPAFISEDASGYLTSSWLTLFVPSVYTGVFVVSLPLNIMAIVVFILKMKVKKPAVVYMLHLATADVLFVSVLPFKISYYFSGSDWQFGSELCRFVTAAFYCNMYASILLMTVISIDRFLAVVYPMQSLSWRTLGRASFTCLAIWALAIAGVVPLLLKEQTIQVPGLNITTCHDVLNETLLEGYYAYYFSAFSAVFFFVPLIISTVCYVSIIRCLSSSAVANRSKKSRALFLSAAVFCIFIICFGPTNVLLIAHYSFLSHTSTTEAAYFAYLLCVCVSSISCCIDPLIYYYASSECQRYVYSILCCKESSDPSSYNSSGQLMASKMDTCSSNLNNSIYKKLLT
Test: PAR1 binding test (radioligand displacement, membrane preparation)
Set-up: expressed in transfected cells; host or cells: High Five insect cells (transient expression), membrane preparation
Settings: human PAR1 receptor expressed in High Five insect cells, membrane 1 mg/ml, radioligand 20 nM, 60 minutes; read-out: Inhibition of binding IC50
Some compounds, each annotated with its measured IC50.

[
  {
    "STRUCTURE_STRING": "CCOc1cc2c(cc1C(=O)NC)C(=N)N(CC(=O)c1cc(NC(=O)C(F)(F)F)cc(S(F)(F)(F)(F)F)c1)C2",
    "IC50 [µM]": 4.8
  },
  {
    "STRUCTURE_STRING": "CCOc1cc(C(=O)CN2Cc3cc(OCC)c(OCC)c(F)c3C2=N)cc(S(F)(F)(F)(F)F)c1",
    "IC50 [µM]": 0.512
  },
  {
    "STRUCTURE_STRING": "CCOc1cc2c(c(F)c1OCC)C(=N)N(CC(=O)c1cc(Cl)cc(S(F)(F)(F)(F)F)c1)C2",
    "IC50 [µM]": 1.7
  },
  {
    "STRUCTURE_STRING": "CCOc1cc2c(c(F)c1OCC)C(=N)N(CC(=O)c1cc(N3CCOCC3)cc(S(F)(F)(F)(F)F)c1)C2",
    "IC50 [µM]": 0.225
  }
]

###

Biological target: PAR1 (Homo sapiens)
Sequence (P25116 22-425): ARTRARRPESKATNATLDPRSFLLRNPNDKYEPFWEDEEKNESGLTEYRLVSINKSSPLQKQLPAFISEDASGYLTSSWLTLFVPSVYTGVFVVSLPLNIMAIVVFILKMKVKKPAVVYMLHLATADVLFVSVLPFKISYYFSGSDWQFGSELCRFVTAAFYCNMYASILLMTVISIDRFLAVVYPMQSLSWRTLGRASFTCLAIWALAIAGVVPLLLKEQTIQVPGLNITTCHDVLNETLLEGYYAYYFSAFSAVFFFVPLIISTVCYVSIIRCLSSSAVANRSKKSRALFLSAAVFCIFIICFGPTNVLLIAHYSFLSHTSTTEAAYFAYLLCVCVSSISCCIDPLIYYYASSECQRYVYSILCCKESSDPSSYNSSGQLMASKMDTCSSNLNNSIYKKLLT
Assay: Inhibition of PAR1-mediated platelet aggregation induced by TRAP
Type: cell-based
Set-up: endogenous in cells; host or cells: washed human blood platelets from volunteer donors
Conditions: washed platelets from healthy volunteer donors, TRAP (thrombin receptor-activating peptide) as agonist, 96-well format, AUC at 650 nm

[
  {
    "STRUCTURE_STRING": "CCOc1cc2c(c(F)c1OCC)C(=N)N(CC(=O)c1cc(N(C)C(C)=O)cc(S(F)(F)(F)(F)F)c1)C2",
    "EXPERIMENTAL_TARGET": "PAR1 (Homo sapiens)",
    "IC50, µM": 0.387
  },
  {
    "STRUCTURE_STRING": "CCOc1cc2c(c(F)c1OCC)C(=N)N(CC(=O)c1cc(OC)cc(S(F)(F)(F)(F)F)c1)C2",
    "EXPERIMENTAL_TARGET": "PAR1 (Homo sapiens)",
    "IC50, µM": 0.028
  },
  {
    "STRUCTURE_STRING": "CCOc1cc2c(c(F)c1OCC)C(=N)N(CC(=O)c1ccc(S(F)(F)(F)(F)F)cc1N)C2",
    "EXPERIMENTAL_TARGET": "PAR1 (Homo sapiens)",
    "IC50, µM": 0.098
  },
  {
    "STRUCTURE_STRING": "CCOc1cc2c(c(F)c1OCC)C(=N)N(CC(=O)c1cc(N3C(=O)CCC3=O)cc(S(F)(F)(F)(F)F)c1)C2",
    "EXPERIMENTAL_TARGET": "PAR1 (Homo sapiens)",
    "IC50, µM": 0.175
  },
  {
    "STRUCTURE_STRING": "CCOc1cc2c(c(F)c1OCC)C(=N)N(CC(=O)c1cc(N)c(S(F)(F)(F)(F)F)cc1C)C2",
    "EXPERIMENTAL_TARGET": "PAR1 (Homo sapiens)",
    "IC50, µM": 10.6
  },
  {
    "STRUCTURE_STRING": "CCOc1cc2c(cc1C(=O)NC)C(=N)N(CC(=O)c1cc(N(S(C)(=O)=O)S(C)(=O)=O)cc(S(F)(F)(F)(F)F)c1)C2",
    "EXPERIMENTAL_TARGET": "PAR1 (Homo sapiens)",
    "IC50, µM": 0.718
  },
  {
    "STRUCTURE_STRING": "CCOc1cc2c(cc1C(=O)NC)C(=N)N(CC(=O)c1cc(NC)cc(S(F)(F)(F)(F)F)c1)C2",
    "EXPERIMENTAL_TARGET": "PAR1 (Homo sapiens)",
    "IC50, µM": 0.002
  },
  {
    "STRUCTURE_STRING": "CCOc1cc2c(cc1C(=O)NC)C(=N)N(CC(=O)c1cc(NC(C)=O)cc(S(F)(F)(F)(F)F)c1)C2",
    "EXPERIMENTAL_TARGET": "PAR1 (Homo sapiens)",
    "IC50, µM": 0.017
  },
  {
    "STRUCTURE_STRING": "CCOc1cc2c(cc1C(=O)NC)C(=N)N(CC(=O)c1cc(N(C)C)cc(S(F)(F)(F)(F)F)c1)C2",
    "EXPERIMENTAL_TARGET": "PAR1 (Homo sapiens)",
    "IC50, µM": 0.597
  }
]

Taken from patent US8466169B2.
